Molecular target: Diacylglycerol O-acyltransferase 2 (Homo sapiens)
Sequence (Q96PD7 whole entry): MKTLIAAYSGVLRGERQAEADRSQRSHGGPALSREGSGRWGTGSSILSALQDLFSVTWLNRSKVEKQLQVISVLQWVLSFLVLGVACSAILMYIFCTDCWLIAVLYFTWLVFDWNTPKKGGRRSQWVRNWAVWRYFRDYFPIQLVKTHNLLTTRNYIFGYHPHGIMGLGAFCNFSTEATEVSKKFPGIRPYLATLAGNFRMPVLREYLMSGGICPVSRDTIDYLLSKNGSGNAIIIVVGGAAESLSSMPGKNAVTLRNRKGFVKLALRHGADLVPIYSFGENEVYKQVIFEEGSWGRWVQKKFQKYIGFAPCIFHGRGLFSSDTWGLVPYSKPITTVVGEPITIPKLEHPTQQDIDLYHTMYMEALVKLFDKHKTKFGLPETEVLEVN
Assay: Inhibition of human recombinant DGAT2 using dioleoyl-sn-glycerol and [14C]oleoyl coenzyme A as substrate after 30 mins by liquid scintillation counting
pIC50: −log10 of the molar value.
pIC50 values for the compounds below.

Below, each entry is followed by its recorded pIC50 result.
CC[C@]1(C)NC(=O)c2cc(S(=O)(=O)Nc3ccc(C(F)(F)F)cc3)ccc2NC1=O | < 5.00
CCC1(C)NC(=O)c2cc(S(=O)(=O)Nc3ccccc3Cl)ccc2NC1=O (racemic) | < 5.00
CC[C@]1(C)NC(=O)c2cc(S(=O)(=O)Nc3ccc(OC(F)F)cc3)ccc2NC1=O | < 5.00
CCC1(C)NC(=O)c2cc(S(=O)(=O)Nc3ccc(Cl)cc3)ccc2N(C)C1=O (racemic) | < 5.00
CCC1(C)NC(=O)c2cc(S(=O)(=O)Nc3ccc(Cl)cc3)ccc2NC1=O (racemic) | < 5.00
CCC1(C)NC(=O)c2cc(S(=O)(=O)Nc3ccccc3)ccc2NC1=O (racemic) | < 5.00
CC[C@]1(C)NC(=O)c2cc(S(=O)(=O)Nc3ccc(F)cc3F)ccc2NC1=O | < 5.00
CCC1(C)NC(=O)c2cc(S(=O)(=O)Nc3ccc(OC)cc3)ccc2NC1=O (racemic) | < 5.00
CCC1(C)NC(=O)c2cc(S(=O)(=O)N(C)c3ccccc3)ccc2NC1=O (racemic) | < 5.00
CCC1(C)C(=O)Nc2ccc(S(=O)(=O)Nc3ccc(F)cc3F)cc2C(=O)N1C (racemic) | < 5.00

// next entry
Note pIC50 for the compound shown: CCC1(CC)CNc2ccc(S(=O)(=O)Nc3ccc(F)cc3F)cc2C(=O)N1
< 5.00

---

Test system: Liver microsomes
Experiment: Ratio of compound-glutathione adduct formation to clozapine-glutathione adduct formation in human liver microsomes at 10 umol/l after 30 mins by glutathione trapping method
Type: ADME, Microsome
Details: 0.5 h, 10 µM
reported_endpoint: Ratio

Below, each entry is followed by its recorded Ratio result.
CCC1(C)NC(=O)c2cc(S(=O)(=O)Nc3ccc(Cl)cc3)ccc2NC1=O (racemic) | 0.4
CCC1(CC)CNc2ccc(S(=O)(=O)Nc3ccc(F)cc3F)cc2C(=O)N1 | 1.8

[1] CCC1(C)NC(=O)c2cc(S(=O)(=O)Nc3ccccc3Cl)ccc2NC1=O (racemic)
[2] CCC1(C)NC(=O)c2cc(S(=O)(=O)N(C)c3ccccc3)ccc2NC1=O (racemic)
Task for the reader: decide whether 1 or 2 has the larger Ratio. Write the label of whichever entry you select.
1

---

Assay: Lipophilicity, log D of the compound at pH 7.4
Type: physicochemical
Settings: buffer
reported_endpoint: logD

[P] CCC1(C)NC(=O)c2cc(S(=O)(=O)Nc3ccc(OC(F)F)cc3)ccc2NC1=O (racemic)
[Q] CCC1NC(=O)c2cc(S(=O)(=O)Nc3ccccc3)ccc2NC1=O (racemic)
Given P and given Q , which shows the smaller recorded logD? Write the label of whichever entry you select.
Q
(Q: 1.6, P: 2.3)

---

Assay: Intrinsic clearance in human liver microsomes as 1 umol/l measured up to 30 mins by LC-MS analysis
Assay type: ADME, Microsome
Settings: read-out: CLH
reported_endpoint: microsomal CLint at 1 µM (µL/min/mg)

Below, each entry is followed by its recorded microsomal CLint at 1 µM result.
CCC1(C)NC(=O)c2cc(S(=O)(=O)Nc3ccc(Cl)cc3)ccc2NC1=O (racemic) | 3
CCC1(C)NC(=O)c2cc(S(=O)(=O)Nc3ccc(Cl)cc3)ccc2N(C)C1=O (racemic) | 7

[a] CCC1(C)C(=O)Nc2ccc(S(=O)(=O)Nc3ccc(F)cc3F)cc2C(=O)N1C (racemic)
[b] CCC1(C)NC(=O)c2cc(S(=O)(=O)N(C)c3ccccc3)ccc2NC1=O (racemic)
[c] CCC1(C)NC(=O)c2cc(S(=O)(=O)Nc3ccc(OC)cc3)ccc2NC1=O (racemic)
[d] CCC1(CC)CNc2ccc(S(=O)(=O)Nc3ccc(F)cc3F)cc2C(=O)N1
[e] CC[C@]1(C)NC(=O)c2cc(S(=O)(=O)Nc3ccc(OC(F)F)cc3)ccc2NC1=O
Descending sort on microsomal CLint at 1 µM required. Output the labels ranked as instructed.
b, d, c, a, e
